- testedOn: 5-HT3A receptor R145C (Homo sapiens, UniProt P46098, R140C)
- Construct: expressed in transfected cells; host or cells: HEK 293
- experimentalDetails: Saturation binding of [^3H]VUF10166 at 5-HT3A receptor mutant
- protocolConditions: R145C, Loop E; read-out: Kd (nM) Mean ± SEM
measuredEndpoint: Kd (nM)
Give bare numbers, in nM.

Please provide the recorded Kd for CN1CCN(c2nc3ccccc3nc2Cl)CC1 [[^3H]VUF10166] , tested on 5-HT3A receptor R145C (Homo sapiens, UniProt P46098, R140C).
0.96

* * *

- testedOn: 5-HT3A receptors (Homo sapiens)
- Sequence (P46098 24-478): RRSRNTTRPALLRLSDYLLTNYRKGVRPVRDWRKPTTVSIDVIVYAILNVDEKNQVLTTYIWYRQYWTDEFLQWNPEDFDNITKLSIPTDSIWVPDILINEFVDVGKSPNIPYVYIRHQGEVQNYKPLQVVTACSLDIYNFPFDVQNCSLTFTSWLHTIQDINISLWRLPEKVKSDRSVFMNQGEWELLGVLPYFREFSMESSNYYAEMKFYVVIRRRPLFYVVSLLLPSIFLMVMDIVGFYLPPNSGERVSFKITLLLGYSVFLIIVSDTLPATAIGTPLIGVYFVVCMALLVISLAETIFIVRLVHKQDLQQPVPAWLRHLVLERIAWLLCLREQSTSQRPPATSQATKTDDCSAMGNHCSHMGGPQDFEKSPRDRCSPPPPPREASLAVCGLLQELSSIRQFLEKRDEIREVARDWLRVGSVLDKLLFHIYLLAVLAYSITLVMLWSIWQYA
measuredEndpoint: Ki (nM)
Give bare numbers, in nM.

Please provide the recorded Ki for CN1CCN(c2nc3ccccc3nc2Cl)CC1 [VUF10166] , tested on 5-HT3A receptors (Homo sapiens).
0.24

* * *

- testedOn: UniProtKB P46098
- Sequence (P46098 24-478): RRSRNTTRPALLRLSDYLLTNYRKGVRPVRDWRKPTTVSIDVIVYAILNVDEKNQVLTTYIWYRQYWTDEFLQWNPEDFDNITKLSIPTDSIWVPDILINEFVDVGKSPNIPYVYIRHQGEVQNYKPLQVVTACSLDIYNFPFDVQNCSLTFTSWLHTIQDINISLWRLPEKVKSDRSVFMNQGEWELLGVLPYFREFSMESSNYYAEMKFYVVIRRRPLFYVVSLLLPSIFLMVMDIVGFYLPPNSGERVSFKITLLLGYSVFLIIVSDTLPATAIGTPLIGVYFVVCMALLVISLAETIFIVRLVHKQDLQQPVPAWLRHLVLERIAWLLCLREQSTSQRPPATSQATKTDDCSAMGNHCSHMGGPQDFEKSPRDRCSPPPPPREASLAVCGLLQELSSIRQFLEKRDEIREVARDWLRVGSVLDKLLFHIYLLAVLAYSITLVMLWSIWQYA
- experimentalDetails: biochemical
- Type: binding
- Design: expressed in transfected cells; host or cells: HEK 293
- protocolConditions: 5-HT3A; tritiated ligand, transfected HEK 293 cells, 0 °C; read-out: Kd (nM) saturation
Give Kd for every item shown.

| compound | result |
| --- | --- |
| CN1CCN(c2nc3ccccc3nc2Cl)CC1 [VUF10166] | 0.18 nM |

// returns reported Kd for input CN1CCN(c2nc3ccccc3nc2Cl)CC1 [[^3H]VUF10166]
0.18 nM
